tested on: Hek293T; test: Primary qHTS to identify gynecologic anti-cancer compounds using libraries of approved drugs and bioactive compounds (AID 1345084); details: Gynecologic cancer cell panel viability, ATPlite luminescence, 48 h, control line for the selectivity index; series mostly up to 57.5 µM; also: % is scaled to controls: 0 for no effect and ±100 for the full control effect; nearly all actives have a fitted effect of over 55% in size
Records with an inconclusive call do not appear. The source made the active and inactive calls. Calls follow the shape of the dose curve; as a rule, active = well fitted cell-killing curve with a large enough effect; inconclusive = small, poorly fitted or top-dose-only effect, or effect the other way; inactive = flat fitted curve, though single readings scatter.
assay.endpoint: activity change, negative = cytotoxicity

- compound: "OC[C@H]1O[C@@H](O[C@H]2[C@H](O)[C@@H](CO)O[C@@H](OCc3ccccc3)[C@@H]2O[C@@H]2OC[C@](O)(CO)[C@H]2O)[C@H](O)[C@@H](O)[C@@H]1O"
  result: "inactive"
- compound: "NC(=O)[C@H](Cc1ccccc1)NC(=O)[C@H](CCCN=C(N)N)NC(=O)C12CC3CC(CC(C3)C1)C2"
  result: "9.9% [at 11.6 µM] (inactive)"
- compound: "CCNC(=O)OC1CCN(c2nncc3cc(OC)c(OC)cc23)CC1"
  result: "inactive"
- compound: "CC(=O)NCC1CN(c2ccc(-c3ccc(CNCc4cn[nH]n4)cc3)c(F)c2)C(=O)O1 (centres undefined)"
  result: "inactive"
